Tested on: Pseudomonas aeruginosa
assay text: Antimicrobial activity against Pseudomonas aeruginosa isolate 3066 obtained from cystic fibrosis patient by disk diffusion method
Assay type: functional
Would you mind telling me the reported MIC of each entry?
API: value field is a number in µg/mL; no unit string.

Incoming: Specify MIC for NC[C@H]1O[C@H](O[C@H]2[C@H](O)[C@@H](O[C@H]3O[C@H](CO)[C@@H](O)[C@H](N)[C@H]3O)[C@H](N)C[C@@H]2N)[C@H](N)C[C@@H]1O [TOBRAMYCIN] and stop.
Outgoing: 16

Incoming: Specify MIC for `CO/N=C(\C(=O)N[C@@H]1C(=O)N2C(C(=O)[O-])=C(C[N+]3(C)CCCC3)CS[C@H]12)c1csc(N)n1` and stop.
Outgoing: 32

Incoming: Specify MIC for CC1(C)S[C@@H]2[C@H](NC(=O)[C@H](C(=O)O)c3ccsc3)C(=O)N2[C@H]1C(=O)O [TICARCILLIN] and stop.
Outgoing: 2

Incoming: Specify MIC for O=C(O)c1cn(C2CC2)c2cc(N3CCNCC3)c(F)cc2c1=O [CIPROFLOXACIN] and stop.
Outgoing: 16

Data credit: ChEMBL document CHEMBL1649198
